Where do these numbers come from? They come from ChEMBL document CHEMBL4041550.

assay: Tmax in Swiss albino mouse at 10 mg/kg, ip by LC/MS/MS method; assay type: ADME, organism-based; settings: in vivo
RECORDED_ENDPOINT: Tmax (min)
Numbers only, in min.

Look up Tmax: Cc1ccc(-n2c(=O)ccc3ccc4ccc(-c5cnn(C)c5)cc4c32)cc1NC(=O)/C=C/CN(C)C
15

====

test system: dengue virus type 2; experiment: Antiviral activity against Dengue virus serotype 2 replicon harboring GVD mutant infected in HuH7 cells assessed as reduction in viral RNA translation at 2 uM measured at 6 hrs post infection by luciferase reporter gene assay relative to control; type: functional; design: scale not given: the % may be the effect or the level left
RECORDED_ENDPOINT: Activity (%)
Answers are plain numbers, in %.

Examples with answers:
[
  {
    "STRUCTURE_AS_SMILES": "Cc1ccc(-n2c(=O)ccc3ccc4ccc(-c5cnn(C)c5)cc4c32)cc1NC(=O)/C=C/CN(C)C",
    "VALUE_MEASURED": 65
  },
  {
    "STRUCTURE_AS_SMILES": "C=CC(=O)Nc1cc(-n2c(=O)ccc3ccc4ccc(-c5ccc6ccncc6c5)cc4c32)ccc1C",
    "VALUE_MEASURED": 82
  },
  {
    "STRUCTURE_AS_SMILES": "C=CC(=O)Nc1cc(-n2c(=O)ccc3cnc4ccc(-c5cnn(C)c5)cc4c32)ccc1C(=O)N(C)C",
    "VALUE_MEASURED": 4
  },
  {
    "STRUCTURE_AS_SMILES": "C=CC(=O)Nc1cc(-n2c(=O)ccc3ccc4ccc(-c5cn[nH]c5)cc4c32)ccc1C",
    "VALUE_MEASURED": 39
  },
  {
    "STRUCTURE_AS_SMILES": "C=CC(=O)N1CCc2ccc(-n3c(=O)n(C)c4cnc5ccc(-c6ccc7ccncc7c6)cc5c43)cc21",
    "VALUE_MEASURED": 77
  }
]

For each of the molecules below, note its Activity.
1. C=CC(=O)Nc1cc(-n2c(=O)ccc3cnc4ccc(-c5cnn(C)c5)cc4c32)ccc1OCCNC(C)=O
2. Cc1ccc(-n2c(=O)ccc3ccc4ccc(-c5ccc6ccncc6c5)cc4c32)cc1NC(=O)/C=C/CN(C)C
3. C=CC(=O)Nc1cc(-n2c(=O)ccc3cnc4ccc(-c5cnn(C)c5)cc4c32)ccc1C(=O)O

39
17
3

====

assay: AUClast in Swiss albino mouse at 50 mg/kg, ip by LC/MS/MS method; format: ADME, organism-based; set-up: dose 50 mg/kg, route intraperitoneal, time 0 - last; conditions: in vivo
RECORDED_ENDPOINT: AUC(0-t) (ng·h/mL)
Answers are plain numbers, in ng·h/mL.

Look up AUC(0-t): Cc1ccc(-n2c(=O)ccc3ccc4ccc(-c5cnn(C)c5)cc4c32)cc1NC(=O)/C=C/CN(C)C
8220

====

target: Serine/threonine-protein kinase pim-2 (Homo sapiens, UniProt Q9P1W9); experiment: Inhibition of recombinant full length GST-tagged human PIM2 expressed in baculovirus expression system by Z'-Lyte assay
Sequence (Q9P1W9 whole entry): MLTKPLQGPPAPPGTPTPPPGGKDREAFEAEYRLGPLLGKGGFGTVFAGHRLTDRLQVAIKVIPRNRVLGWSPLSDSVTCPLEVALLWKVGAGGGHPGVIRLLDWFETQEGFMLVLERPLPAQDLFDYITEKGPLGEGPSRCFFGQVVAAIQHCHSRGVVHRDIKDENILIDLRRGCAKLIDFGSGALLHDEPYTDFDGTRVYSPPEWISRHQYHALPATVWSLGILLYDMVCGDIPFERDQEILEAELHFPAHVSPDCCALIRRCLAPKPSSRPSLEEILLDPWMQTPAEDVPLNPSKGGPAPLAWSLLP
RECORDED_ENDPOINT: IC50

Look up IC50: Cc1ccc(-n2c(=O)ccc3ccc4ccc(-c5cnn(C)c5)cc4c32)cc1NC(=O)/C=C/CN(C)C
> 10 µM

====

test: Volume of distribution at steady state in Swiss albino mouse at 2 mg/kg, iv by LC/MS/MS method; type: ADME, organism-based; details: in vivo, read-out: Vdss
RECORDED_ENDPOINT: Vd (L/kg)
Give bare numbers, in L/kg.

Look up Vd: Cc1ccc(-n2c(=O)ccc3ccc4ccc(-c5cnn(C)c5)cc4c32)cc1NC(=O)/C=C/CN(C)C
9.58

====

tested on: dengue virus type 2; assay: Antiviral activity against Dengue virus serotype 2 replicon harboring GVD mutant infected in HuH7 cells assessed as reduction in viral RNA translation at 2 uM measured at 6 hrs post infection by luciferase reporter gene assay relative to control; format: functional; parameters: scale not given: the % may be the effect or the level left
I'd appreciate it if you could supply Activity values for the items below.
In your response, the unit should come after the numeric value.

[
  {
    "STRUCTURE_AS_SMILES": "C=CC(=O)Nc1cc(-n2c(=O)ccc3ccc4ccc(-c5cnn(C)c5)cc4c32)ccc1C",
    "Activity": "76%"
  },
  {
    "STRUCTURE_AS_SMILES": "C=CC(=O)Nc1cc(-n2c(=O)ccc3cnc4ccc(Nc5cnn(C)c5)cc4c32)ccc1C",
    "Activity": "23%"
  }
]

For each of the compounds below, note its Activity.
1. C=CC(=O)N1CCc2ccc(-n3c(=O)ccc4cnc5ccc(-c6ccc(S(=O)(=O)NC(C)(C)C)cc6)cc5c43)cc21
2. C=CC(=O)N1CCc2ccc(-n3c(=O)n(C)c4cnc5ccc(-c6cnn(C)c6)cc5c43)cc21

1: 81%; 2: 94%

====

test: AUClast in Swiss albino mouse at 2 mg/kg, iv by LC/MS/MS method; format: ADME, organism-based; design: dose 2 mg/kg, route intravenous, time 0 - last; settings: in vivo
RECORDED_ENDPOINT: AUC(0-t) (ng·h/mL)
Answers are plain numbers, in ng·h/mL.

Look up AUC(0-t): Cc1ccc(-n2c(=O)ccc3ccc4ccc(-c5cnn(C)c5)cc4c32)cc1NC(=O)/C=C/CN(C)C
161

====

assay: AUC (infinity) in Swiss albino mouse at 50 mg/kg, ip by LC/MS/MS method; type: ADME, organism-based; design: dose 50 mg/kg, time infinity, route intraperitoneal; conditions: in vivo
RECORDED_ENDPOINT: AUC(0-inf) (ng·h/mL)
Give bare numbers, in ng·h/mL.

Look up AUC(0-inf): Cc1ccc(-n2c(=O)ccc3ccc4ccc(-c5cnn(C)c5)cc4c32)cc1NC(=O)/C=C/CN(C)C
8550

====

experiment: Tmax in Swiss albino mouse at 50 mg/kg, ip by LC/MS/MS method; assay type: ADME, organism-based; details: in vivo
RECORDED_ENDPOINT: Tmax (min)
One number for each entry, in min.

Look up Tmax: Cc1ccc(-n2c(=O)ccc3ccc4ccc(-c5cnn(C)c5)cc4c32)cc1NC(=O)/C=C/CN(C)C
4.8

====

target: Tyrosine-protein kinase BTK (Homo sapiens, UniProt Q06187); assay: Inhibition of recombinant full length His-tagged human BTK cytoplasmic domain expressed in baculovirus expression system by Z'-Lyte assay
Sequence (Q06187 whole entry, the tested form may be a part): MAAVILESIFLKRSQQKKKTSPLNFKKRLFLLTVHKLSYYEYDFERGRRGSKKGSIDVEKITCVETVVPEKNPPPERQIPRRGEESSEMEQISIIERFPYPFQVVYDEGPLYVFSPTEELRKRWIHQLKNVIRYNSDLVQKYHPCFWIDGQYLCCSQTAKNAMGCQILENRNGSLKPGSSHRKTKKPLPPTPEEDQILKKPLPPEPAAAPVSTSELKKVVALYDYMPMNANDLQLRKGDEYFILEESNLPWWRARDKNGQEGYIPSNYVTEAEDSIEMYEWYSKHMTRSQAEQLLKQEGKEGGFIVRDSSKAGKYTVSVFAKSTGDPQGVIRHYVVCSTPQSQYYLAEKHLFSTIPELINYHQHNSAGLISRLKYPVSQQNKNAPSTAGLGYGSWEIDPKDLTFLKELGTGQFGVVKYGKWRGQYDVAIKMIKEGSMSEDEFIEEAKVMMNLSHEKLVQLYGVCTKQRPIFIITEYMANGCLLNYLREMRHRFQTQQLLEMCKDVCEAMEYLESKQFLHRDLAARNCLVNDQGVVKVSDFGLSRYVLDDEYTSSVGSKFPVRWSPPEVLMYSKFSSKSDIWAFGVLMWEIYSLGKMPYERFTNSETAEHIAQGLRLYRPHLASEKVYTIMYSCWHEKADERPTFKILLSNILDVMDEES
RECORDED_ENDPOINT: IC50 (nM)
One number for each entry, in nM.

Look up IC50: Cc1ccc(-n2c(=O)ccc3ccc4ccc(-c5cnn(C)c5)cc4c32)cc1NC(=O)/C=C/CN(C)C
911

====

test system: dengue virus type 2; test: Antiviral activity against Dengue virus serotype 2 replicon harboring GVD mutant infected in HuH7 cells assessed as reduction in viral RNA translation at 2 uM measured at 6 hrs post infection by luciferase reporter gene assay relative to control; type: functional; set-up: scale not given: the % may be the effect or the level left
RECORDED_ENDPOINT: Activity (%)
Answers are plain numbers, in %.

[
  {
    "STRUCTURE_AS_SMILES": "C=CC(=O)N1CCc2ccc(N3C(=O)NCc4cnc5ccc(-c6cnn(C)c6)cc5c43)cc21",
    "EXPERIMENTAL_SYSTEM": "dengue virus type 2",
    "UNIT_ABBREVIATION": "%",
    "Activity": 49
  },
  {
    "STRUCTURE_AS_SMILES": "C=CC(=O)Nc1cc(-n2c(=O)ccc3cnc4ccc(N5CCOCC5)cc4c32)ccc1C",
    "EXPERIMENTAL_SYSTEM": "dengue virus type 2",
    "UNIT_ABBREVIATION": "%",
    "Activity": 0
  },
  {
    "STRUCTURE_AS_SMILES": "C=CC(=O)Nc1cc(-n2c3c(ccc2=O)CCc2ccc(-c4cnn(C)c4)cc2-3)ccc1C",
    "EXPERIMENTAL_SYSTEM": "dengue virus type 2",
    "UNIT_ABBREVIATION": "%",
    "Activity": 49
  }
]

For each of the compounds below, note its Activity.
1. C=CC(=O)Nc1cc(-n2c(=O)ccc3cnc4ccc(-c5ccc(N)nc5)cc4c32)ccc1C
2. C=CC(=O)Nc1cc(-n2c(=O)ccc3cnc4ccc(-c5cnn(C)c5)cc4c32)ccc1F

[44, 97]

====

assay: Half life in Swiss albino mouse at 2 mg/kg, iv by LC/MS/MS method; format: ADME, organism-based; conditions: in vivo
RECORDED_ENDPOINT: half-life (h)
Give bare numbers, in h.

Look up half-life: Cc1ccc(-n2c(=O)ccc3ccc4ccc(-c5cnn(C)c5)cc4c32)cc1NC(=O)/C=C/CN(C)C
1.07

====

I'd appreciate it if you could supply Activity values for the items below.
system: dengue virus type 2; assay: Antiviral activity against Dengue virus serotype 2 strain New Guinea C infected in HuH7 cells assessed as reduction in log-fold change by measuring focus forming unit at 2 uM measured at 24 hrs post infection by focus forming assay relative to control; assay type: functional, Thailand/NGS-C/1944
In your response, the unit should come after the numeric value.

Examples with answers:
[
  {
    "STRUCTURE_AS_SMILES": "C=CC(=O)Nc1cc(-n2c3c(ccc2=O)CCc2ccc(-c4cnn(C)c4)cc2-3)ccc1C",
    "Activity": "0.5 log10FFU/ml"
  },
  {
    "STRUCTURE_AS_SMILES": "C=CC(=O)N1CCc2ccc(-n3c(=O)n(C)c4cnc5ccc(-c6ccc7ccncc7c6)cc5c43)cc21",
    "Activity": "2 log10FFU/ml"
  },
  {
    "STRUCTURE_AS_SMILES": "Cc1ccc(-n2c(=O)ccc3ccc4ccc(-c5ccc6ccncc6c5)cc4c32)cc1NC(=O)/C=C/CN(C)C",
    "Activity": "3.3 log10FFU/ml"
  },
  {
    "STRUCTURE_AS_SMILES": "C=CC(=O)Nc1cc(-n2c(=O)ccc3cnc4ccc(-c5cnn(C)c5)cc4c32)ccc1C(=O)N(C)C",
    "Activity": "2 log10FFU/ml"
  },
  {
    "STRUCTURE_AS_SMILES": "Cc1ccc(-n2c(=O)ccc3ccc4ccc(-c5cnn(C)c5)cc4c32)cc1NC(=O)/C=C/CN(C)C",
    "Activity": "4 log10FFU/ml"
  }
]

# value lookup — system dengue virus type 2, readout Activity, item C=CC(=O)Nc1cc(-n2c(=O)ccc3cnc4ccc(N5CCOCC5)cc4c32)ccc1C
0.1 log10FFU/ml
